Tested on: SW480
PROCEDURE_DETAILS: TCF/Wnt firefly luciferase reporter signal relative to plate median (fraction of plate median); higher = higher Wnt reporter signal
ASSAY_SETUP: 5 µM; treatment time 24 h; reporter: 7TFP
MEASURED_ENDPOINT: TCF/Wnt firefly luciferase reporter signal
When you answer, write just the number.

Past entries and their recorded results:
• C=C1[C@H]2CC[C@@]3(C)[C@H](c4ccoc4)OC(=O)C[C@]13O[C@H]1C[C@H](O)C(C)(C)[C@H](CC(=O)OC)[C@]12C [3-DEOXY-3beta-HYDROXYANGOLENSIC ACID METHYL ESTER] = 0.952
• COc1ccc2cc([C@H](C)C(=O)O)ccc2c1 = 0.941
• COc1cc(O)ccc1C(C)=O = 0.97
• O=C(O)C1=CC(=C(c2ccc(O)c(C(=O)O)c2)c2ccc(O)c(C(=O)O)c2)C=CC1=O = 1.01

Exercise: Retrieve TCF/Wnt firefly luciferase reporter signal measured for COc1ccc2c(c1)OC1(O)COc3cc(OC)c(OC)cc3C1=C2 (configuration not stated) and print it.
Key: 0.895

Exercise: Retrieve TCF/Wnt firefly luciferase reporter signal measured for CC1Cc2ccccc2N1NC(=O)c1ccc(Cl)c(S(N)(=O)=O)c1 (configuration not stated) and print it.
Key: 1.05

Exercise: Retrieve TCF/Wnt firefly luciferase reporter signal measured for C=CCSCC(N)C(=O)O (configuration not stated) and print it.
Key: 0.923

Exercise: Retrieve TCF/Wnt firefly luciferase reporter signal measured for CC(N)C(=O)OC(C)(C)Cc1ccc(Cl)cc1 (configuration not stated) and print it.
Key: 0.879

Exercise: Retrieve TCF/Wnt firefly luciferase reporter signal measured for C/C=C/C=C/C1C=CC2CC(C)CCC2C1(C)/C(O)=C1/C(=O)NC(C(C)O)C1=O (configuration not stated) and print it.
Key: 0.923

Exercise: Retrieve TCF/Wnt firefly luciferase reporter signal measured for NC(C(=O)O)C(O)C(=O)O (stereo not drawn) [d,l-threo-3-HYDROXYASPARTIC ACID] and print it.
Key: 1.15
